Target: human recombinant serotonin (5-Hydroxytryptamine) 5-HT2C receptor (Homo sapiens, UniProt P28335)
Construct: expressed in transfected cells; host or cells: Chinese hamster ovary (CHO-K1) cells
Sequence (P28335 33-458): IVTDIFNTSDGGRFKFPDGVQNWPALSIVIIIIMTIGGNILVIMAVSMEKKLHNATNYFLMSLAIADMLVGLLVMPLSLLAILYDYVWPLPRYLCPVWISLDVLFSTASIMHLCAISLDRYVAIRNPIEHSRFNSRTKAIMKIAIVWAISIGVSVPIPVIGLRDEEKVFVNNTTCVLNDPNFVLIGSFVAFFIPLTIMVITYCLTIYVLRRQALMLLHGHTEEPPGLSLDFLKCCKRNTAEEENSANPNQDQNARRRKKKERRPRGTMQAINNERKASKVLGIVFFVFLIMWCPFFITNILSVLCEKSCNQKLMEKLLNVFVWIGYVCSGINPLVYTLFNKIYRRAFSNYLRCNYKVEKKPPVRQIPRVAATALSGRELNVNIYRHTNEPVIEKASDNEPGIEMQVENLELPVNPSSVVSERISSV
Experiment: Serotonin 5-HT2C radioligand binding ([3H]Mesulergine)
Settings: compound at 1 μM; read-out: Inhibition of ligand binding, Serotonin 5-HT2C (percent inhibition of specific binding)
measured metric: inhibition at 1 µM (%)
Reply with just the number (in %).

*Q* Reported inhibition at 1 µM for C/C(=C\n1c2c(c3cc(C)ccc31)CN(C)CC2)c1cccnc1 [Compound 91] : what is it?
*A* 100

*Q* // next record COc1ccc2c(c1)c1c(n2CC(C)(O)c2ccncc2)CCN(C)C1 (centres unmarked) [Compound 188]
*A* 66

*Q* Also CN1CCc2c(c3ccc(Cl)cc3n2CC(C)(O)c2ccncc2)C1 (centres unmarked) [Compound 184] ?
*A* 65

*Q* Input C/C(=C\n1c2c(c3c(Cl)c(Cl)ccc31)CN(C)CC2)c1ccc(F)cc1 [Compound 232]
*A* 98

*Q* Same thing, different compound: Cc1ccc2c(c1)c1c(n2C/C(=C/C(=O)O)c2ccc(F)cc2)CCN(C)C1 [Compound No. 352]
*A* 93

*Q* What would you report for CN1CCc2c(c3cc(Cl)ccc3n2/C=C(/c2ccc(F)cc2)C2CCC2)C1 [Compound 206] ?
*A* 98

*Q* Same question, COc1ccc(/C(C)=C/n2c3c(c4cc(C)ccc42)CN(C)CC3)cc1 [Compound 236] this time
*A* 102

*Q* Try C/C(=C\n1c2c(c3cc(Cl)ccc31)CN(C)CC2)c1ccc(Cl)cc1 [Compound 100] next.
*A* 97

*Q* Now the same for C/C(=C\n1c2c(c3cc(Cl)ccc31)CN(C)CC2)c1ccc(F)cc1 [Compound 83]
*A* 98

*Q* Also check C=C(Cn1c2c(c3cc(Cl)ccc31)CN(C)CC2)c1ccc(C)nc1 [Compound 136]
*A* 93

*Q* Again, but for Cc1ccc(C(C)(O)Cn2c3c(c4cc(Cl)ccc42)CN(C)CC3)cn1 (centres unmarked) [Compound 47]
*A* 81

*Q* Can you handle CCCCC(O)(Cn1c2c(c3cc(Cl)ccc31)CN(C)CC2)c1ccc(F)cc1 (centres unmarked) [Compound 178] next?
*A* 95

*Q* And the next one, Cc1ccc2c(c1)c1c(n2CC(C)(O)c2ccc(O)cc2)CCN(C)C1 (centres unmarked) [Compound 187] ?
*A* 99

*Q* Now give it for C/C(=C\n1c2c(c3cccc(Cl)c31)CN(C)CC2)c1ccncc1 [Compound 222] too.
*A* 99

*Q* Quick one: Cc1ccc(/C=C/Cn2c3c(c4cc(Cl)ccc42)CN(C)CC3)cn1 [Compound 125]
*A* 77

*Q* Note, next up: Cc1ccc2c(c1)c1c(n2/C=C(\CC(=O)O)c2ccc(F)cc2)CCN(C)C1 [Compound 209]
*A* 95

*Q* Same read-out for C/C(=C/n1c2c(c3cc(C)ccc31)CN(C)CC2)c1ccc(Cl)c(Cl)c1 [Compound 247] ?
*A* 100

*Q* Would you kindly repeat that for C/C(=C/n1c2c(c3cc(C)ccc31)CN(C)CC2)c1cccc(F)c1 [Compound 225] ?
*A* 100

*Q* What do you get for C=C(Cn1c2c(c3cc(OC)ccc31)CN(C)CC2)c1ccncc1 [Compound No. 356] ?
*A* 83

*Q* Param item: C/C(=C/n1c2c(c3cc(Cl)c(Cl)cc31)CN(C)CC2)c1ccncc1 [Compound 244]
*A* 99

*Q* Field entry: CN1CCc2c(c3cc(Cl)ccc3n2/C=C(/c2ccc(F)cc2)C2CC2)C1 [Compound 110]
*A* 101

*Q* Same read-out for CN1CCc2c(c3cc(Cl)ccc3n2CC(O)(c2ccc(F)cc2)C2CC2)C1 (centres unmarked) [Compound 82] ?
*A* 105

*Q* Next compound: C/C(=C\n1c2c(c3ccc(Cl)cc31)CN(C)CC2)c1ccc(F)cc1 [Compound 228]
*A* 97

*Q* Now this one: C/C(=C\n1c2c(c3cc(Cl)ccc31)CN(C)CC2)c1ccc(Cl)c(Cl)c1 [Compound 103]
*A* 98

*Q* Continue with COc1ccc(C(C)(O)Cn2c3c(c4cc(Cl)ccc42)CN(C)CC3)cc1 (centres unmarked) [Compound 57]
*A* 86

*Q* Again, but for COC(=O)c1ccc2c(c1)c1c(n2C#Cc2ccc(F)cc2)CCN(C)C1 [Compound No. 479]
*A* 69

*Q* Then this compound: C/C(=C\n1c2c(c3cc(Cl)c(Cl)cc31)CN(C)CC2)c1ccncc1 [Compound 243]
*A* 99

*Q* Now give it for Cc1ccc2c(c1)c1c(n2CC(O)c2ccncc2)CCN(C)C1 (centres unmarked) [Compound 180] too.
*A* 74

*Q* What would you report for C/C(=C\n1c2c(c3cc(C)ccc31)CN(C)CC2)c1cccc(F)c1 [Compound 226] ?
*A* 100

*Q* Next record, please: CN1CCc2c(c3cccc(F)c3n2CC(C)(O)c2ccncc2)C1 (centres unmarked) [Compound 185]
*A* 83

*Q* Entry CN1CCc2c(c3cc(Cl)ccc3n2CC(O)(c2ccc(F)cc2)C2CCC2)C1 (centres unmarked) [Compound 177] please
*A* 95

*Q* Now the compound CN1CCc2c(c3cc(Cl)ccc3n2C/C=C/c2ccncc2)C1 [Compound 127]
*A* 72

*Q* Further, for CN1CCc2c(c3cc(Cl)ccc3n2CC(C)(O)c2ccncc2)C1 (centres unmarked) [Compound 63] ?
*A* 95

*Q* And what about the compound CNC(=O)c1ccc2c(c1)c1c(n2C#Cc2ccc(F)cc2)CCN(C)C1 [Compound No. 483] ?
*A* 35

*Q* // next record Cc1ccc2c(c1)c1c(n2CC(O)c2ccc(F)cc2)CCN(C)C1 (centres unmarked) [Compound 172]
*A* 97

* * *

Molecular target: human recombinant serotonin (5-Hydroxytryptamine) 5-HT2C receptor (Homo sapiens)
Construct: expressed in transfected cells; host or cells: Chinese hamster ovary (CHO-K1) cells
Assay: Serotonin 5-HT2C radioligand binding ([3H]Mesulergine)
Settings: compound at 1 μM; read-out: Inhibition of ligand binding, Serotonin 5-HT2C (percent inhibition of specific binding)
Experimental: Compounds of the invention were incubated with 1 nM [^3H]Mesulergine for 60 min. at 25° C. Non-specific binding was estimated in the presence of 1 μM Mianserin. Receptor proteins were filtered and washed, the filters were then counted to determine [^3H]Mesulergine specifically bound. Compounds were screened at 1 μM or lower, using 1% DMSO as vehicle. Biochemical assay results are presented as the percent inhibition of specific binding in Table 10.
measured metric: inhibition at 1 µM (%)
Report the value in % with no unit label.

*Q* Any idea what inhibition at 1 µM was measured for Cc1ccc2c(c1)c1c(n2C#Cc2ccc(C)nc2)CCN(C)C1 ?
*A* 95

*Q* Next molecule: C/C(=C\n1c2c(c3cc(Cl)ccc31)CN(C)CC2)c1ccccc1
*A* 98

*Q* Another molecule to check: C/C(=C/n1c2c(c3cc(Cl)ccc31)CN(C)CC2)c1cccc(F)c1
*A* 101

*Q* Would you mind doing Cc1ccc2c(c1)c1c(n2CC(C)(O)c2ccc(F)cc2)CCN(C)C1 (centres unmarked) as well?
*A* 93

*Q* # repeat for COc1ccc(C(C)(O)Cn2c3c(c4cc(C)ccc42)CN(C)CC3)cc1F (centres unmarked)
*A* 98

* * *

Kindly state inhibition at 1 µM for each of the entries shown.
Biological target: human dopamine D2L receptor (Homo sapiens)
Sequence (P14416 whole entry): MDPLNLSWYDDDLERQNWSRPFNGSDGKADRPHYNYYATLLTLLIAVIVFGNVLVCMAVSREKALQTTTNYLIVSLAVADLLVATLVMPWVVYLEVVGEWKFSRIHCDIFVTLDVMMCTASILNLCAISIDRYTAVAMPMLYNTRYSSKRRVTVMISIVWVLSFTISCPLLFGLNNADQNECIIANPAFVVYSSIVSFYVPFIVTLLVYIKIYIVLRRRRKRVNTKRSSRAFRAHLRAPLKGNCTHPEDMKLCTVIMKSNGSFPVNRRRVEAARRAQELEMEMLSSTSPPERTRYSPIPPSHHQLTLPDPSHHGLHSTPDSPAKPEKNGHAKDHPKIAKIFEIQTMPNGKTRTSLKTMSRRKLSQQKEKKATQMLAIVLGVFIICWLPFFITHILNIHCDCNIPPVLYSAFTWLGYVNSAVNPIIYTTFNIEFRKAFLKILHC
Experiment: Dopamine D2L radioligand binding ([3H]Spiperone)
Conditions: percent inhibition of specific binding; compound at 1 μM; read-out: Inhibition of ligand binding, Dopamine D2L
Use % as the unit, but write only the number.

*Q* Sample COc1ccc(C(C)(O)Cn2c3c(c4cc(Cl)ccc42)CN(C)CC3)cc1F (stereo not drawn) [Compound 59] — what was its inhibition at 1 µM?
*A* 17

*Q* Continue with C=C(Cn1c2c(c3cc(Cl)ccc31)CN(C)CC2)c1ccc(C)nc1 [Compound 136]
*A* 54

*Q* Next record, please: Cc1ccc2c(c1)c1c(n2/C=C(/c2ccncc2)C(C)(C)C)CCN(C)C1 [Compound 280]
*A* 52

*Q* Same read-out for C/C(=C/n1c2c(c3cc(C)ccc31)CN(C)CC2)c1ccncc1 [Compound 224] ?
*A* 65

*Q* Continue with Cc1ccc2c(c1)c1c(n2/C=C/c2ccccc2)CCN(C)C1 [Compound 202]
*A* 83

*Q* How about this compound: C/C(=C\n1c2c(c3cc(Cl)ccc31)CN(C)CC2)c1cccnc1 [Compound 86]
*A* 40

*Q* One more compound: C/C(=C/n1c2c(c3cc(Cl)ccc31)CN(C)CC2)c1ccc(Cl)c(Cl)c1 [Compound 256]
*A* 34

*Q* # iterate: CCc1ccc2c(c1)c1c(n2/C=C(\C)c2ccncc2)CCN(C)C1 [Compound 270]
*A* 88

*Q* Okay, and CC/C(=C/n1c2c(c3cc(C)ccc31)CN(C)CC2)c1ccncc1 [Compound 281] ?
*A* 51

*Q* Could you do the same for CN1CCc2c(c3ccc(Cl)cc3n2CC(C)(O)c2ccncc2)C1 (stereo not drawn) [Compound 184] , please?
*A* 1

*Q* Param item: C/C(=C\n1c2c(c3cc(C)ccc31)CN(C)CC2)c1ccc(C)nc1 [compound 85]
*A* 43

*Q* Queued: CCC(O)(Cn1c2c(c3cc(Cl)ccc31)CN(C)CC2)c1ccc(F)cc1 (stereo not drawn) [Compound 78]
*A* 27

*Q* Would you kindly repeat that for C/C(=C\n1c2c(c3cc(C)ccc31)CN(C)CC2)c1cccnc1 [Compound 91] ?
*A* 27

*Q* Next record, please: C/C(=C\n1c2c(c3cc(C)ccc31)CN(C)CC2)c1cc(F)c(F)cc1Cl [Compound 221]
*A* 34

*Q* Can you check C/C(=C\n1c2c(c3ccc(F)cc31)CN(C)CC2)c1ccc(C)nc1 [Compound 261] next?
*A* 28

*Q* Now consider C/C(=C\n1c2c(c3cc(Cl)ccc31)CN(C)CC2)c1ccncc1 [Compound 90] .
*A* 93

*Q* Next record, please: C/C(=C\n1c2c(c3cc(Cl)ccc31)CN(C)CC2)c1cncnc1 [Compound 346]
*A* 26

*Q* Similarly, C/C(=C\n1c2c(c3cc(C)ccc31)CN(C)CC2)c1ccc(F)c(F)c1 [Compound 230] ?
*A* 44
